tested on: NCI-H23; experiment: Growth inhibition of human NCI-H23 cells after 48 hrs by SRB assay; assay type: functional; conditions: NCI-H23, 48 h
Kindly state GI50 for each of the entries shown.
Note: a bare number is incomplete; add the unit.

*Q* Consider the compound shown here: COc1ccc(-c2nc3ccccn3c2/C=C/C(=O)c2cc(OC)c(OC)c(OC)c2)cc1OC What is its recorded GI50?
*A* 3780 nM

*Q* Cool, now COc1cc(C(=O)/C=C/c2c(-c3ccc(F)cc3)nc3ncccn23)cc(OC)c1OC
*A* 1580 nM

*Q* What do you have for COc1ccc(-c2nc3ncccn3c2/C=C/C(=O)c2cc(OC)c(OC)c(OC)c2)cc1 ?
*A* 1350 nM

*Q* What do we get for COc1cc(C(=O)/C=C/c2c(-c3cccs3)nc3ccccn23)cc(OC)c1OC ?
*A* 2200 nM

*Q* Next entry: COc1ccc(-c2nc3ccccn3c2/C=C/C(=O)c2cc(OC)c(OC)c(OC)c2)cc1
*A* 3410 nM

*Q* Here is the next compound: COc1cc(C(=O)/C=C/c2c(C(F)(F)F)nc3ccccn23)cc(OC)c1OC
*A* 1510 nM

*Q* Next record, please: COc1ccc(C(=O)/C=C/c2c(C(F)(F)F)nc3ccccn23)cc1OC
*A* 2370 nM
